- SYSTEM: electric eel AChE (Electrophorus electricus)
- Construct: purchased Sigma-Aldrich
- Sequence (O42275 24-633): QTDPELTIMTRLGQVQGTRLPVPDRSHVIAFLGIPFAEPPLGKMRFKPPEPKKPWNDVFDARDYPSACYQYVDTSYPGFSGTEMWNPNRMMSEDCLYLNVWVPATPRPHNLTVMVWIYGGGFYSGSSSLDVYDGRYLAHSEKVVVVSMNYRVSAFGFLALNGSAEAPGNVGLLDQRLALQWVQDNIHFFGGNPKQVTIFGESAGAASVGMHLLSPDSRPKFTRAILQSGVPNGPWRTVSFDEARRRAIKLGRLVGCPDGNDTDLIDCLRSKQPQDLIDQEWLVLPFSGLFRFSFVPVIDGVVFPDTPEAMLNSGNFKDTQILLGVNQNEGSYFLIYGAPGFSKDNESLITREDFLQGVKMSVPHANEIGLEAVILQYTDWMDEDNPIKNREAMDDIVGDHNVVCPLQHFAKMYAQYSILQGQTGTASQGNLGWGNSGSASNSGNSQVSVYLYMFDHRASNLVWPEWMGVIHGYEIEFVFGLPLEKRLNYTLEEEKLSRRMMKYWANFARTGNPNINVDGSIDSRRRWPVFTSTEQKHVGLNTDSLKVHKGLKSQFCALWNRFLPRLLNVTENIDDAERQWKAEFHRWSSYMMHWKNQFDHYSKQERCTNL
- TEST: Acetylcholinesterase (AChE) inhibition assay, Ellman method
- Type: biochemical
- CONDITION_SUMMARY: IC50 (μM), IC50 ± standard deviation
READOUT: IC50 (µM)
Hi! Could you send only the number? It should be in µM, unit omitted.

Q: Given the compound C=C(C)C1CC=C(C)CC1 (stereo not drawn) [Limonene] , what is its reported IC50?
A: 390

Q: Given the compound CC1=CCCC(C)=CCC(C)(C)C=CC1 [α-Humulene] , what is its reported IC50?
A: 785

Q: Given the compound C=C(C)C1CC=C(C)C(O)C1 (stereo not drawn) [trans-Carveol] , what is its reported IC50?
A: 676

Q: Given the compound C=C1CCC=C(C)CCC2C1CC2(C)C (stereo not drawn) [(E)-β-Caryophyllene] , what is its reported IC50?
A: 436

Q: Given the compound C=C1CC[C@H]2O[C@]2(C)CC[C@@H]2[C@@H]1CC2(C)C [Caryophyllene Oxide] , what is its reported IC50?
A: 1450

Q: Given the compound C=C1CCC2CC1C2(C)C (stereo not drawn) [β-Pinene] , what is its reported IC50?
A: 525
